# Tested on: NCI-H226 lung
# assay.method.text: NCI tumour cell line growth inhibition, 48 h
Readings of TGI for the listed molecules

molecule: COc1ccc(NC(=O)CC(=O)N/N=C/c2ccc(N(CCC#N)S(C)(=O)=O)cc2)cc1
measured.endpoint: TGI
observed: > 100 µM

Item: COc1ccc(C[C@@H](CO)NC2=C(C#N)CCC2)cc1 | TGI: > 100 µM

Item: O=C1c2ccccc2C(=O)c2c1cc(S(=O)(=O)O)c(O)c2O | TGI: > 100 µM

Item: CS(=O)(=O)CCNCc1ccc(-c2ccc3ncnc(Nc4ccc(OCc5ccccc5)cc4)c3c2)o1 | TGI: > 25 µM

Item: O/N=C/c1ncccc1C1OCCO1 | TGI: > 100 µM

Item: COc1ccc(-c2onc(N)c2-c2cc(OC)c3c(c2)OCO3)cc1 | TGI: > 100 µM

Measured values drawn from PubChem BioAssay (NCI) for this set.
